assay: Cell Viability - MRC5 (AID 434); conditions: MRC5 lung fibroblast viability, qHTS;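 further: cells exposed to compound for 40 hours at 37 °C; potency reflects cytotoxicity seen as loss of intracellular ATP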
Inconclusive results are not listed. Calls of active or inactive are those of the source. The call rests on the fitted dose curve.
Outcomes: y for active, n for inactive

>>> class_assignment("O=C1OC(c2ccc(O)cc2)(c2ccc(O)cc2)c2ccccc21")
"n"
>>> class_assignment("CCCCCCc1ccc(O)cc1O")
"n"
>>> class_assignment("Oc1c(I)cc(Cl)c2cccnc12")
"y"
>>> class_assignment("Nc1ccc(C(=O)O)cc1")
"n"
>>> class_assignment("CC(=O)Oc1ccc(C(c2ccc(OC(C)=O)cc2)c2ccccn2)cc1")
"n"
>>> class_assignment("C=C(CC)C(=O)c1ccc(OCC(=O)O)c(Cl)c1Cl")
"n"
>>> class_assignment("O=C(O)CCCCC(=O)O")
"n"
>>> class_assignment("COc1cccc2c1C(=O)c1c(O)c3c(c(O)c1C2=O)C[C@@](O)(C(C)=O)C[C@@H]3O[C@H]1C[C@H](N)[C@H](O)[C@H](C)O1")
"y"
>>> class_assignment("Oc1ccc(O)cc1")
"n"
